- Tested on: AML12 hepatocytes
- test-description: Resazurin reduction assay (RRA), cytotoxicity on normal hepatocytes
- Assay type: cell-based
- condition-context: Mus musculus; AML12 normal hepatocytes, 72 h
readout-kind: IC50

[[record]]
compound = "COc1cc([C@H]2Oc3cc(-c4cc(=O)c5c(O)cc(O)cc5o4)ccc3O[C@@H]2CO)ccc1O"
result = "51.2 µM"

[[record]]
compound = "CC(C)(O)[C@@H](O)Cc1cn([C@@H]2O[C@H](CO)[C@@H](O)[C@H](O)[C@H]2O)c2ccccc12"
result = "> 100 µM"

[[record]]
compound = "CC(C)=CC(=O)c1c[nH]c2ccccc12"
result = "> 100 µM"

[[record]]
compound = "C[C@@H](O)C1CCC2C3CC=C4C[C@@H](O[C@@H]5OC[C@H](O)[C@H](O)[C@H]5O)CC[C@]4(C)C3CC[C@@]21C (stereo partly shown)"
result = "> 100 µM"


---

- Test system: HCT116 p53−/− cells
- test-description: Resazurin reduction assay (RRA), cytotoxicity
- Assay type: cell-based, human
- condition-context: ratio of IC50 HCT116 p53−/− vs HCT116 p53+/+
Below, each of the molecules is paired with its reported Degree of resistance (D.R.) value.
readout-kind: Degree of resistance (D.R.)

[[record]]
molecule = "COc1cc([C@H]2Oc3cc(-c4cc(=O)c5c(O)cc(O)cc5o4)ccc3O[C@@H]2CO)ccc1O"
readout_relation = "="
numeric_readout = 0.59

[[record]]
molecule = "CC(C)=CC(=O)c1c[nH]c2ccccc12"
readout_relation = "="
numeric_readout = 1.53

[[record]]
molecule = "COc1cccc2c1C(=O)c1c(O)c3c(c(O)c1C2=O)C[C@@](O)(C(=O)CO)C[C@@H]3O[C@H]1C[C@H](N)[C@H](O)[C@H](C)O1 [Doxorubicin, reference compound]"
readout_relation = "="
numeric_readout = 3.73

[[record]]
molecule = "O=c1ccc2nccc3c4ccccc4n1c23"
readout_relation = "="
numeric_readout = 0.85

[[record]]
molecule = "C[C@@H](O)C1CCC2C3CC=C4C[C@@H](O[C@@H]5OC[C@H](O)[C@H](O)[C@H]5O)CC[C@]4(C)C3CC[C@@]21C (stereo partly drawn)"
readout_relation = "<"
numeric_readout = 0.50

[[record]]
molecule = "C[C@@H](O)C1CCC2C3CC=C4C[C@@H](O[C@@H]5OC[C@H](O)[C@H](O)[C@H]5O[C@@H]5O[C@H](CO)[C@@H](O)[C@H](O)[C@H]5O)CC[C@]4(C)C3CC[C@@]21C (stereo partly drawn)"
readout_relation = "<"
numeric_readout = 0.32


---

- Tested on: CCRF-CEM leukemia cells
- test-description: Resazurin reduction assay (RRA), cytotoxicity
- Format: cell-based
- condition-context: Homo sapiens, 72 h
pIC50: −log10 of the molar value.
The label depends only on pIC50: T if it is at least 5, F if it is smaller.

[[record]]
molecule = "C[C@@H](O)C1CCC2C3CC=C4C[C@@H](O[C@@H]5OC[C@H](O)[C@H](O)[C@H]5O)CC[C@]4(C)C3CC[C@@]21C (some centres unmarked)"
discrete_label = "F"

[[record]]
molecule = "CC(C)(O)[C@@H](O)Cc1cn([C@@H]2O[C@H](CO)[C@@H](O)[C@H](O)[C@H]2O)c2ccccc12"
discrete_label = "F"

[[record]]
molecule = "O=c1ccc2nccc3c4ccccc4n1c23"
discrete_label = "F"

[[record]]
molecule = "COc1cccc2c1C(=O)c1c(O)c3c(c(O)c1C2=O)C[C@@](O)(C(=O)CO)C[C@@H]3O[C@H]1C[C@H](N)[C@H](O)[C@H](C)O1 [Doxorubicin, reference compound]"
discrete_label = "T"

[[record]]
molecule = "C[C@@H](O)C1CCC2C3CC=C4C[C@@H](O[C@@H]5OC[C@H](O)[C@H](O)[C@H]5O[C@@H]5O[C@H](CO)[C@@H](O)[C@H](O)[C@H]5O)CC[C@]4(C)C3CC[C@@]21C (some centres unmarked)"
discrete_label = "F"

[[record]]
molecule = "CC(C)=CC(=O)c1c[nH]c2ccccc12"
discrete_label = "F"

[[record]]
molecule = "COc1cc([C@H]2Oc3c(OC)cc4ccc(=O)oc4c3O[C@@H]2CO)cc(OC)c1O"
discrete_label = "F"

[[record]]
molecule = "COc1cc([C@H]2Oc3cc(-c4cc(=O)c5c(O)cc(O)cc5o4)ccc3O[C@@H]2CO)ccc1O"
discrete_label = "T"


---

Below, each of the compounds is paired with its reported IC50 value.
- Test system: HCT116 p53−/− cells
- test-description: Resazurin reduction assay (RRA), cytotoxicity
- Assay type: cell-based, human
- condition-context: Homo sapiens, HCT-116; HCT116 p53−/−, 72 h
readout-kind: IC50

[[record]]
compound = "COc1cc([C@H]2Oc3c(OC)cc4ccc(=O)oc4c3O[C@@H]2CO)cc(OC)c1O"
readout_kind = "IC50"
result = "> 100 µM"

[[record]]
compound = "COc1cc([C@H]2Oc3cc(-c4cc(=O)c5c(O)cc(O)cc5o4)ccc3O[C@@H]2CO)ccc1O"
readout_kind = "IC50"
result = "6.74 µM"

[[record]]
compound = "O=c1ccc2nccc3c4ccccc4n1c23"
readout_kind = "IC50"
result = "21 µM"

[[record]]
compound = "C[C@@H](O)C1CCC2C3CC=C4C[C@@H](O[C@@H]5OC[C@H](O)[C@H](O)[C@H]5O)CC[C@]4(C)C3CC[C@@]21C (stereo partly shown)"
readout_kind = "IC50"
result = "50.5 µM"

[[record]]
compound = "CC(C)=CC(=O)c1c[nH]c2ccccc12"
readout_kind = "IC50"
result = "36.4 µM"

[[record]]
compound = "CC(C)(O)[C@@H](O)Cc1cn([C@@H]2O[C@H](CO)[C@@H](O)[C@H](O)[C@H]2O)c2ccccc12"
readout_kind = "IC50"
result = "> 100 µM"

[[record]]
compound = "C[C@@H](O)C1CCC2C3CC=C4C[C@@H](O[C@@H]5OC[C@H](O)[C@H](O)[C@H]5O[C@@H]5O[C@H](CO)[C@@H](O)[C@H](O)[C@H]5O)CC[C@]4(C)C3CC[C@@]21C (stereo partly shown)"
readout_kind = "IC50"
result = "32.2 µM"


---

readout-kind: melting point

[[record]]
compound = "C[C@@H](O)C1CCC2C3CC=C4C[C@@H](O[C@@H]5OC[C@H](O)[C@H](O)[C@H]5O)CC[C@]4(C)C3CC[C@@]21C (some centres unmarked) [Compound 3]"
readout_kind = "melting point"
result = "258 to 260 °C"

[[record]]
compound = "CC(C)(O)[C@@H](O)Cc1cn([C@@H]2O[C@H](CO)[C@@H](O)[C@H](O)[C@H]2O)c2ccccc12 [Compound 7]"
readout_kind = "melting point"
result = "209 to 211 °C"

[[record]]
compound = "COc1cc([C@H]2Oc3cc(-c4cc(=O)c5c(O)cc(O)cc5o4)ccc3O[C@@H]2CO)ccc1O [Compound 2, hydnocarpin]"
readout_kind = "melting point"
result = "261 to 263 °C"

[[record]]
compound = "C[C@@H](O)C1CCC2C3CC=C4C[C@@H](O[C@@H]5OC[C@H](O)[C@H](O)[C@H]5O[C@@H]5O[C@H](CO)[C@@H](O)[C@H](O)[C@H]5O)CC[C@]4(C)C3CC[C@@]21C (some centres unmarked) [Compound 4]"
readout_kind = "melting point"
result = "258 to 260 °C"

[[record]]
compound = "COc1cc([C@H]2Oc3c(OC)cc4ccc(=O)oc4c3O[C@@H]2CO)cc(OC)c1O [Compound 6, cleomiscosin C]"
readout_kind = "melting point"
result = "254 to 256 °C"


---

- Test system: U87MG cells
- test-description: Resazurin reduction assay (RRA), cytotoxicity
- Format: cell-based
- condition-context: Homo sapiens, U-87 MG, 72 h
pIC50: −log10 of the molar value.
Below, each of the compounds is paired with its reported pIC50 value.
readout-kind: pIC50

[[record]]
compound = "O=c1ccc2nccc3c4ccccc4n1c23"
readout_relation = "="
numeric_readout = 4.71

[[record]]
compound = "COc1cc([C@H]2Oc3cc(-c4cc(=O)c5c(O)cc(O)cc5o4)ccc3O[C@@H]2CO)ccc1O"
readout_relation = "="
numeric_readout = 5.03

[[record]]
compound = "C[C@@H](O)C1CCC2C3CC=C4C[C@@H](O[C@@H]5OC[C@H](O)[C@H](O)[C@H]5O[C@@H]5O[C@H](CO)[C@@H](O)[C@H](O)[C@H]5O)CC[C@]4(C)C3CC[C@@]21C (stereo partly shown)"
readout_relation = "="
numeric_readout = 4.55

[[record]]
compound = "CC(C)=CC(=O)c1c[nH]c2ccccc12"
readout_relation = "="
numeric_readout = 4.62

[[record]]
compound = "C[C@@H](O)C1CCC2C3CC=C4C[C@@H](O[C@@H]5OC[C@H](O)[C@H](O)[C@H]5O)CC[C@]4(C)C3CC[C@@]21C (stereo partly shown)"
readout_relation = "<"
numeric_readout = 4.00

[[record]]
compound = "CC(C)(O)[C@@H](O)Cc1cn([C@@H]2O[C@H](CO)[C@@H](O)[C@H](O)[C@H]2O)c2ccccc12"
readout_relation = "<"
numeric_readout = 4.00

[[record]]
compound = "COc1cc([C@H]2Oc3c(OC)cc4ccc(=O)oc4c3O[C@@H]2CO)cc(OC)c1O"
readout_relation = "<"
numeric_readout = 4.00

